Experiment: chemical genetic growth profiling, strain panel (AID 1159580);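 further: tested at 20 µM; growth read once vehicle control cultures reached saturation at 30 °C; 1 = growth at the plate median or of vehicle wells; lower values mean less growth of the strain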
Details: S. cerevisiae deletion strains, growth OD, locus YOR265W, strain rbl2, hits give low values
Among all 5,500 compounds or so, about 2,000 (36%) were called active. Inconclusive results (about 18%) are left out. Some of the results follow.
List of normalized growth values.
PROPERTY: normalized growth

>  <COMPOUND>
O=c1oc2ccccc2cc1O

>  <PROPERTY>
normalized growth

>  <REPORTED>
0.992

$$$$
>  <COMPOUND>
FC(F)(F)c1cccc(N2CCNCC2)c1

>  <PROPERTY>
normalized growth

>  <REPORTED>
0.993

$$$$
>  <COMPOUND>
CC(=O)Oc1ccc2c(c1)CCC1C2CC[C@]2(C)C(=O)CCC12 (stereo not given in full)

>  <PROPERTY>
normalized growth

>  <REPORTED>
0.989

$$$$
>  <COMPOUND>
CC(=O)O[C@H]1C[C@@]2(C)[C@@H](C[C@@H](O)C3[C@]2(C)CC[C@H]2[C@H](C)[C@H](O)CC[C@]32C)/C1=C(/CCC=C(C)C)C(=O)O (stereo not given in full)

>  <PROPERTY>
normalized growth

>  <REPORTED>
1.02

$$$$
>  <COMPOUND>
O=C(O)C1CCCNC1 (stereo not given)

>  <PROPERTY>
normalized growth

>  <REPORTED>
1.02

$$$$
>  <COMPOUND>
COC(=O)[C@@H]1OC(=O)C2OC23[C@@]1(C)CCC1[C@@]2(C)CCC(=O)C(C)(C)C2C[C@@H](OC(C)=O)[C@]13C (stereo not given in full)

>  <PROPERTY>
normalized growth

>  <REPORTED>
1.01

$$$$
>  <COMPOUND>
CC(=O)O[C@H]1CC[C@@]2(C)C(C[C@@H](OC(C)=O)[C@]3(C)C2CC[C@@]2(C)[C@H](c4ccoc4)OC(=O)[C@H]4O[C@]423)C1(C)C (stereo not given in full)

>  <PROPERTY>
normalized growth

>  <REPORTED>
1

$$$$
>  <COMPOUND>
NC1(C(=O)O)CCCC1

>  <PROPERTY>
normalized growth

>  <REPORTED>
1.01

$$$$
>  <COMPOUND>
CN(C)CCC(c1ccccc1)c1ccccn1 (stereo not given)

>  <PROPERTY>
normalized growth

>  <REPORTED>
1

$$$$
>  <COMPOUND>
CC(=O)O[C@@H]1CC2C(C)(C)[C@H](O)C=C[C@]2(C)C2CC[C@@]3(C)[C@H](c4ccoc4)OC(=O)C4OC43[C@@]21C (stereo not given in full)

>  <PROPERTY>
normalized growth

>  <REPORTED>
1.02

$$$$
>  <COMPOUND>
Cc1onc(-c2ccccc2)c1-c1ccc(S(N)(=O)=O)cc1

>  <PROPERTY>
normalized growth

>  <REPORTED>
1

$$$$
>  <COMPOUND>
CCC(C)C(=O)c1c(O)c(C)c2oc3c(C)c(O)c(C(=O)C(C)CC)c(O)c3c2c1O (stereo not given)

>  <PROPERTY>
normalized growth

>  <REPORTED>
0.981

$$$$
>  <COMPOUND>
CC(C)/C(O)=C1/C(=O)O[C@@H](c2ccoc2)[C@]2(C)C(O)[C@@H](O)[C@@]34OC5(C)OC67CC(C)(C(O)[C@]6(O)[C@@H](O)[C@]3(O5)C12)[C@H](CC(=O)O)[C@]74C (stereo not given in full)

>  <PROPERTY>
normalized growth

>  <REPORTED>
0.989

$$$$
>  <COMPOUND>
COc1ccc2c(c1)OCC(Cc1ccc(OC)c(OC(C)=O)c1)C2=O (stereo not given)

>  <PROPERTY>
normalized growth

>  <REPORTED>
0.975

$$$$
>  <COMPOUND>
CC(=O)O[C@H]1C[C@@H](OC(C)=O)C(C)(C)C2C[C@@H](OC(C)=O)[C@]3(C)C(CC[C@@]4(C)[C@H](c5ccoc5)OC(=O)[C@H]5O[C@]543)[C@]21C (stereo not given in full)

>  <PROPERTY>
normalized growth

>  <REPORTED>
0.989

$$$$
>  <COMPOUND>
COc1cc2c(cc1OC)C1(O)C(=O)c3ccc(O)c(C(=O)O)c3OC1CO2 (stereo not given)

>  <PROPERTY>
normalized growth

>  <REPORTED>
1.01

$$$$
>  <COMPOUND>
O=C1CCCN1CC#CCN1CCCC1

>  <PROPERTY>
normalized growth

>  <REPORTED>
1.02

$$$$
>  <COMPOUND>
C[C@]12CCC3c4ccc(OC(=O)c5ccccc5)cc4CCC3C1CCC2=O (stereo not given in full)

>  <PROPERTY>
normalized growth

>  <REPORTED>
0.989

$$$$
>  <COMPOUND>
COc1ccc2c(c1)OCC(Cc1ccc(OC)c(OC)c1)C2=O (stereo not given)

>  <PROPERTY>
normalized growth

>  <REPORTED>
1

$$$$
>  <COMPOUND>
CC(=O)C1CC[C@H]2C3CC[C@H]4C[C@H](O)CC[C@]4(C)C3CC[C@]12C (stereo not given in full)

>  <PROPERTY>
normalized growth

>  <REPORTED>
0.993

$$$$

* * *

Assay: chemical genetic growth profiling, strain panel (AID 1159580);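 further: tested at 20 µM; growth read once vehicle control cultures reached saturation at 30 °C; 1 = growth at the plate median or of vehicle wells; lower values mean less growth of the strain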
Conditions: S. cerevisiae deletion strains, growth OD, locus YOR231W, strain MKK1, hits give low values
Screen size: about 5,500 compounds; about 2,000 (36%) were called active. Roughly 18% stayed inconclusive and do not appear here. The list shows a part of the results.
PROPERTY: normalized growth

>  <MOLECULE>
COc1cc2nc(N3CCN(C(=O)C4COc5ccccc5O4)CC3)nc(N)c2cc1OC (stereo unspecified)

>  <REPORTED>
0.983 (inactive)

$$$$
>  <MOLECULE>
COc1ccc(-c2oc3cc(OC)c(OC)c(OC)c3c(=O)c2OC)cc1OC

>  <REPORTED>
1.02 (inactive)

$$$$
>  <MOLECULE>
O=C(O)CCCCCCCC(=O)O

>  <REPORTED>
0.973 (inactive)

$$$$
>  <MOLECULE>
NCCCC(=O)O

>  <REPORTED>
1 (inactive)

$$$$
>  <MOLECULE>
COc1ccc(-c2oc3cc(OC)c(OC)c(OC)c3c(=O)c2OC)cc1

>  <REPORTED>
1.02 (inactive)

$$$$
>  <MOLECULE>
O=C(O)C1CCCNC1 (stereo unspecified)

>  <REPORTED>
0.999 (inactive)

$$$$

* * *

Each entry below carries its reported normalized growth.
Assay: chemical genetic growth profiling, strain panel (AID 1159580);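 further: tested at 20 µM; growth read once vehicle control cultures reached saturation at 30 °C; 1 = growth at the plate median or of vehicle wells; lower values mean less growth of the strain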
Details: S. cerevisiae deletion strains, growth OD, locus YER155C, strain BEM2, hits give low values
The campaign covered roughly 5,500 compounds. About 2,000 (36%) were called active. Not shown: some 18% with an inconclusive outcome. Some of the results follow.

>  <COMPOUND>
CN(C)CCC(c1ccccc1)c1ccccn1 (stereo not given)

>  <normalized growth>
1

$$$$
>  <COMPOUND>
COC(=O)/C(C)=C\CC12OC(C)(C)C3CC(C=C4C(=O)c5c(OC)c6c(c(CC=C(C)C)c5OC431)OC(C)(CCC=C(C)C)C=C6)C2=O (stereo not given)

>  <normalized growth>
1.01

$$$$
>  <COMPOUND>
CC(=O)NCCc1c[nH]c2ccc(O)cc12

>  <normalized growth>
0.998

$$$$
>  <COMPOUND>
CCCCCCCCCCCCCC(=O)OC1C(C)C2(O)C(C=C(CO)CC3(O)C(=O)C(C)=CC32)C2C(C)(C)C12OC(C)=O (stereo not given)

>  <normalized growth>
0.996

$$$$
>  <COMPOUND>
CC(C)=CC1C(C(=O)OCc2cccc(Oc3ccccc3)c2)C1(C)C (stereo not given)

>  <normalized growth>
0.998

$$$$
>  <COMPOUND>
CC(=O)OC1CC(O)C(C)(C)C2CC(=O)C3(C)C(CCC4(C)C(c5ccoc5)OC(=O)C5OC543)C12C (stereo not given)

>  <normalized growth>
0.992

$$$$
>  <COMPOUND>
COc1ccc(-c2cc(=O)c3c(OC)cc(OC)cc3o2)cc1

>  <normalized growth>
0.993

$$$$
>  <COMPOUND>
O=C(O)COc1ccc(Cl)cc1Cl

>  <normalized growth>
1.01

$$$$
>  <COMPOUND>
O=NN(CCCl)C(=O)NCCCl

>  <normalized growth>
1

$$$$
>  <COMPOUND>
CC(C)/C(O)=C1/C(=O)O[C@@H](c2ccoc2)[C@]2(C)C(O)[C@@H](O)[C@@]34OC5(C)OC67CC(C)(C(O)[C@]6(O)[C@@H](O)[C@]3(O5)C12)[C@H](CC(=O)O)[C@]74C (stereo not given in full)

>  <normalized growth>
1

$$$$
>  <COMPOUND>
NC(N)=NCCN1CCCCCCC1

>  <normalized growth>
0.998

$$$$
>  <COMPOUND>
CC(=O)OCC(=O)[C@@]1(O)CCC2C3CCC4=CC(=O)C=CC4(C)C3[C@@H](O)C[C@@]21C (stereo not given in full)

>  <normalized growth>
1

$$$$
>  <COMPOUND>
COc1cc(C)c2c(=O)cc(-c3ccccc3)oc2c1

>  <normalized growth>
0.973

$$$$
>  <COMPOUND>
NC(N)=NCCCCN=C(N)N

>  <normalized growth>
1

$$$$
>  <COMPOUND>
COC[C@]12CN(C=O)C3[C@@H]4[C@H](OC)C1[C@]3(C1CC3(O)C(OC)C(O)C4(OC(C)=O)C1C3OC(=O)c1ccccc1)[C@@H](OC)C[C@H]2O (stereo not given in full)

>  <normalized growth>
0.995

$$$$
